# pIC50 per record follows
# experimental_target: UniProt:Q63634
# Sequence (Q63634 1-445): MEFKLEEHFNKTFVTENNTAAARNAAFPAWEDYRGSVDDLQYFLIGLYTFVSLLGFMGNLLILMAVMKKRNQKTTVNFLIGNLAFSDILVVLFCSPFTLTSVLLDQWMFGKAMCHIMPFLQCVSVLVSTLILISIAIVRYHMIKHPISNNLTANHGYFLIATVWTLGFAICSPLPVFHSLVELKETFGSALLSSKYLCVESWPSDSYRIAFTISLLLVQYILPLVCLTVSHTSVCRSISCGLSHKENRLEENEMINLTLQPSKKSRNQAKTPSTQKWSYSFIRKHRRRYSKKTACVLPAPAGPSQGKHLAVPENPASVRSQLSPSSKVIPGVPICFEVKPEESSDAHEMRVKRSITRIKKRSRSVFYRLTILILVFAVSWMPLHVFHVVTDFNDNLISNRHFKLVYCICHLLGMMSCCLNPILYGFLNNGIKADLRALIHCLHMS
Friendly reminder that pIC50 comes from taking -log10 of the concentration in mol/L.

Illustrative cases are given below, each with its answer.
[
  {
    "molecule": "CCC(C)c1ccc(NC(=O)CSc2nccn2C)cc1 (stereo not drawn) [Compound 148, reference compound]",
    "pIC50": 5.62
  },
  {
    "molecule": "CC(Sc1nnnn1C)C(=O)Nc1ccc(C2CCCCC2)cc1 (stereo not drawn)",
    "pIC50": 7.30
  },
  {
    "molecule": "O=C(CCC(Sc1ccccc1)C(=O)Nc1ccccc1)Nc1ccccc1 (stereo not drawn)",
    "pIC50": 6.36
  },
  {
    "molecule": "Cn1c(-c2ccc(Cl)cc2)cnc1SCC(=O)Nc1ccc(Cl)cc1 [Compound 154, reference compound]",
    "pIC50": 5.00
  },
  {
    "molecule": "O=C(CSc1nnnn1-c1ccc(O)cc1)Nc1ccc(C2CCCCC2)cc1",
    "pIC50": 7.14
  },
  {
    "molecule": "Cc1nnc(SCC(=O)Nc2ccc(C(=O)c3ccccc3)cc2)s1",
    "pIC50": 6.82
  },
  {
    "molecule": "Cn1c(CO)cnc1SCC(=O)Nc1ccc(C2CCCCC2)cc1",
    "pIC50": 6.41
  }
]

Consider the record given below.
Could you tell me which pIC50 is on file for CCC(C)c1ccc(NC(=O)CSc2nnnn2C)cc1 (stereo not drawn) [Compound 171, reference compound] ?
6.28

---

# experimental_target: Rat NPY5 Receptor (Rattus norvegicus, UniProt Q63634)
# Sequence (Q63634 1-445): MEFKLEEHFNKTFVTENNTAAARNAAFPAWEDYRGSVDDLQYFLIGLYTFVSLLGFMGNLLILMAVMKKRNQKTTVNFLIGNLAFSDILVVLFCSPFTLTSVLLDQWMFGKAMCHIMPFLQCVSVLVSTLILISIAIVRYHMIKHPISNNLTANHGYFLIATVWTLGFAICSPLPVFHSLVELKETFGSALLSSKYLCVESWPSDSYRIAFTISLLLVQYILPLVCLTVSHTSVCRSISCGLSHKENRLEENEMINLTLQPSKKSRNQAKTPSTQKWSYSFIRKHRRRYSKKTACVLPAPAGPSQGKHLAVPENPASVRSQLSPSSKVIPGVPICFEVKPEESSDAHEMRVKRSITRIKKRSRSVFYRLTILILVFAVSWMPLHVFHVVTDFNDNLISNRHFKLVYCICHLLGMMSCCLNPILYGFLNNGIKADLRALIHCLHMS
# IC50 per record follows
Give just the number in µM; leave the unit off.

Could you tell me which IC50 is on file for Cc1ccc(SCC(=O)Nc2cccc(C#N)c2)cc1 [Compound 151, reference compound] ?
0.28

Could you tell me which IC50 is on file for Cn1cnnc1SCC(=O)Nc1ccc(C2CCCCC2)cc1 [Compound 173, reference compound] ?
0.073

---

# experimental_target: Human NPY2 receptor (Homo sapiens)
# Sequence (P49146 whole entry): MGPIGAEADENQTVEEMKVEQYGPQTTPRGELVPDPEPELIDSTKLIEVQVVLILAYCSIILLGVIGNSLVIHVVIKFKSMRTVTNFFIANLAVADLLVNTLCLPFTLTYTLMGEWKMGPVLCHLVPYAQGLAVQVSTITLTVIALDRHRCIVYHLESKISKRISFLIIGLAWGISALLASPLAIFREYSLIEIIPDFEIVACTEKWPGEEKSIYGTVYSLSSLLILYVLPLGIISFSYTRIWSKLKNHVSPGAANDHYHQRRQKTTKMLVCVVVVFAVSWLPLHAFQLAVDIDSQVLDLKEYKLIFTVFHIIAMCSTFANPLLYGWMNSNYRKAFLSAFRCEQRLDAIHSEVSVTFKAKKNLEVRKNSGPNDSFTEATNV
# experiment: Human NPY2 Receptor Binding Assay
pIC50: −log10 of the molar value.
measured_property: pIC50

Could you tell me which pIC50 is on file for O=C(CSc1ccncc1)Nc1ccc(C(=O)c2ccccc2)cc1 [Compound 41] ?
< 5.30

---

# experimental_target: Human NPY5 Receptor (Homo sapiens)
# Sequence (Q15761 1-445): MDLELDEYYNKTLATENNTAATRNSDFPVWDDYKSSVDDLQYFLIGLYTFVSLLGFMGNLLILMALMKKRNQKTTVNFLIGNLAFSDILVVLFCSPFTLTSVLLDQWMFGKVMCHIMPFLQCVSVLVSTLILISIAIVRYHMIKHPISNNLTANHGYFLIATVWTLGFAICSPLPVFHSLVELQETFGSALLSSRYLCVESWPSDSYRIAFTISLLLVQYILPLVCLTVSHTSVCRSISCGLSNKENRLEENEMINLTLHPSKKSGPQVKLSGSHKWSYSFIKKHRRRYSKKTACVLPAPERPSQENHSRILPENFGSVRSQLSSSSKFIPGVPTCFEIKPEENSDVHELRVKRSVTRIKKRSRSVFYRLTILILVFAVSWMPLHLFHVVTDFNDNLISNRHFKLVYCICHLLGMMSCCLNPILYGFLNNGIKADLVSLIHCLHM
# experiment: Human NPY5 Receptor Binding Assay
# condition_description: [125I]PYY; read-out: hNPY5 IC50
measured_property: pIC50
Friendly reminder that pIC50 comes from taking -log10 of the concentration in mol/L.

[
  {
    "compound": "CC(C)c1ccc(NC(=O)CSc2nnc(Cn3cc(C(F)(F)F)ccc3=O)n2C)cc1 [Compound 176, reference compound]",
    "experimental_target": "Human NPY5 Receptor (Homo sapiens)",
    "observed": 5.52
  },
  {
    "compound": "O=C(CSc1nc2cc(Cl)ccc2s1)Nc1ccc(C(=O)c2ccccc2)cc1",
    "experimental_target": "Human NPY5 Receptor (Homo sapiens)",
    "observed": 5.89
  },
  {
    "compound": "CC(C)c1ccc(NC(=O)CSc2n[nH]c(=O)n2-c2cccc(F)c2)cc1 [Compound 141, reference compound]",
    "experimental_target": "Human NPY5 Receptor (Homo sapiens)",
    "observed": 5.52
  },
  {
    "compound": "Cn1nnnc1SCC(=O)Nc1ccc(OC(F)(F)F)cc1 [Compound 144, reference compound]",
    "experimental_target": "Human NPY5 Receptor (Homo sapiens)",
    "observed": 5.92
  },
  {
    "compound": "O=C(CSc1ncnc2[nH]ncc12)Nc1ccc(C2CCCCC2)cc1",
    "experimental_target": "Human NPY5 Receptor (Homo sapiens)",
    "observed": 5.44
  },
  {
    "compound": "Cc1ccc(SCC(=O)Nc2ccc(C3CCCCC3)cc2)cc1 [Compound 183, reference compound]",
    "experimental_target": "Human NPY5 Receptor (Homo sapiens)",
    "observed": 5.89
  },
  {
    "compound": "CC(=O)Nc1ccc(SCC(=O)Nc2ccc(C3CCCCC3)cc2)cc1",
    "experimental_target": "Human NPY5 Receptor (Homo sapiens)",
    "observed": 5.70
  }
]

Consider the record given below.
Could you tell me which pIC50 is on file for `O=C(CSc1ccc(F)cc1)Nc1ccc(C(=O)c2ccccc2)cc1` ?
6.19

---

# experimental_target: Rat NPY5 Receptor (Rattus norvegicus, UniProt Q63634)
# experiment: Rat NPY5 Receptor Binding Assay
# condition_description: 10 μM, values marked *; read-out: rNPY5 percent inhibition at 10 μM
Param threshold (60%) applies to inhibition at 10 µM; output Yes when value >= threshold, No when value < threshold.

[
  {
    "compound": "O=C(CSc1nc2ccccc2[nH]1)Nc1ccc(C(=O)c2ccccc2)cc1",
    "experimental_target": "Rat NPY5 Receptor (Rattus norvegicus, UniProt Q63634)",
    "label_value": "Yes"
  },
  {
    "compound": "Cn1ccnc1SCC(=O)Nc1ccc(C(=O)c2ccccc2)cc1",
    "experimental_target": "Rat NPY5 Receptor (Rattus norvegicus, UniProt Q63634)",
    "label_value": "Yes"
  },
  {
    "compound": "Nc1nc(O)c2[nH]c(SCC(=O)Nc3ccc(C4CCCCC4)cc3)nc2n1",
    "experimental_target": "Rat NPY5 Receptor (Rattus norvegicus, UniProt Q63634)",
    "label_value": "Yes"
  },
  {
    "compound": "O=C(CSc1nc2ccccc2[nH]1)Nc1ccc(C2CCCCC2)cc1",
    "experimental_target": "Rat NPY5 Receptor (Rattus norvegicus, UniProt Q63634)",
    "label_value": "Yes"
  },
  {
    "compound": "Nc1nc(O)c2[nH]c(SCC(=O)Nc3ccc(C(=O)c4ccccc4)cc3)nc2n1",
    "experimental_target": "Rat NPY5 Receptor (Rattus norvegicus, UniProt Q63634)",
    "label_value": "No"
  },
  {
    "compound": "Cc1nc(-c2nnc(SCC(=O)Nc3ccc(Cl)cc3)n2C)cs1 [Compound 138, reference compound]",
    "experimental_target": "Rat NPY5 Receptor (Rattus norvegicus, UniProt Q63634)",
    "label_value": "No"
  }
]

Test whether the compound `O=C(CSc1nc(-c2ccccc2)c(-c2ccccc2)[nH]1)Nc1ccc(C2CCCCC2)cc1` records inhibition at 10 µM of 60% or higher.
Yes
